meta.source: BindingDB's records for doi:10.1021/acs.biochem.5b00536

# Measurement target: Acetylpolyamine amidohydrolase (Mycoplana ramosa, UniProt Q48935)
# Sequence (Q48935 whole entry): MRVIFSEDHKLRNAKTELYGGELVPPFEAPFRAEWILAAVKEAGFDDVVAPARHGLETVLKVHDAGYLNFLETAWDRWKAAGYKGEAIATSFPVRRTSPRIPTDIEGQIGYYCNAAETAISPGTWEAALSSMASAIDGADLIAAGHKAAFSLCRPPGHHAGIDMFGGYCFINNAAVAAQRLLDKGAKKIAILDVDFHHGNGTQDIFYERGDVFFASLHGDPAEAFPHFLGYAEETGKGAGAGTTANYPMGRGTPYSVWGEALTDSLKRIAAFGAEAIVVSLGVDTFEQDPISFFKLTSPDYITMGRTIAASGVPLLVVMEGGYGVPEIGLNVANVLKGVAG
Listing: IC50 of selected compounds
Experimental readout: IC50 (nM)

>>> val("NCCCCCCCC(=O)NO")
150
>>> val("NCCCCC(=O)NO [5-Amino-N-hydroxypentanamide (4)]")
170
>>> val("NCCCCCCC(=O)NO")
68
>>> val("NCCCCCC(=O)NO")
130

====

Sequence of the target: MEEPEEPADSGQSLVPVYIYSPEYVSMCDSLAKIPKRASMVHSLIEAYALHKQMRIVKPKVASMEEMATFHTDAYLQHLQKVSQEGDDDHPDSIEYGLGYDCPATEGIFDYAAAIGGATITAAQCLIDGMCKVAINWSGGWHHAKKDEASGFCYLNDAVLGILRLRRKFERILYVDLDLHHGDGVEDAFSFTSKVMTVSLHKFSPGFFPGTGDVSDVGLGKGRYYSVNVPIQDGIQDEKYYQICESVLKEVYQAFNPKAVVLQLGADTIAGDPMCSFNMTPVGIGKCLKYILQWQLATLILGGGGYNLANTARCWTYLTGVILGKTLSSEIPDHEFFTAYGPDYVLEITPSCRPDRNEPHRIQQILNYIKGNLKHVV
// reported IC50 for each item listed
Experimental readout: IC50 (µM)

>>> val("NCCCNCCCCCC(=O)C(F)(F)F")
0.26
>>> val("NCCCCC(=O)NO [5-Amino-N-hydroxypentanamide (4)]")
120
>>> val("NCCCCCC(=O)NO")
19
>>> val("NCCCCCCCC(=O)NO")
2.2
>>> val("NCCCCCCC(=O)NO")
5.3
